- PROTOCOL NOTES: PK study in mice
- Assay type: in vivo, BALB/c mice
- CONDITION PARAMETERS: female, BALB/c, mouse, plasma, po, 10 mg/kg, IG
QUANTITY KIND: AUC(0-t) (ng·h/mL)
Numeric answer only, unit ng·h/mL assumed.

Reported AUC(0-t) ( "CN1CCN(Cc2ccc(NC(=O)c3n[nH]cc3Nc3ncnc4[nH]ccc34)cc2)CC1" ) = 463

###

- SUBJECT OF TEST: FLT3 (Homo sapiens)
- Construct: purchased Reaction Biology Corporation (PA, USA)
- PROTOCOL NOTES: Kinase inhibition assay (Reaction Biology)
- Assay type: biochemical
- CONDITION PARAMETERS: 10 μM ATP, 10-dose IC50 mode
QUANTITY KIND: IC50 (nM)
Just the number please, in nM, no unit attached.

In plain terms, "CN1CCN(Cc2ccc(NC(=O)c3n[nH]cc3Nc3ncnc4[nH]ccc34)cc2)CC1" has a documented IC50 of 0.234

###

- PROTOCOL NOTES: PK study in mice
- Assay type: in vivo, BALB/c mice
- CONDITION PARAMETERS: female, BALB/c, mouse, plasma, oral, 10 mg/kg, p.o, read-out: plasma concentration 12 h after administration
QUANTITY KIND: concentration at 12 h (nM)
Quick note: give the figure in nM, leave out the unit.

Briefly, concentration at 12 h measured for "CN1CCN(Cc2ccc(NC(=O)c3n[nH]cc3Nc3ncnc4[nH]ccc34)cc2)CC1" : 30

###

- PROTOCOL NOTES: PK study in mice
- Format: in vivo, BALB/c mice
- CONDITION PARAMETERS: female, BALB/c, mouse, plasma, 10 mg/kg, oral administration (IG)
QUANTITY KIND: Cmax
I'd appreciate it if you wrote the number followed by its unit.

The compound "CN1CCN(Cc2ccc(NC(=O)c3n[nH]cc3Nc3ncnc4[nH]ccc34)cc2)CC1" showed Cmax equal to 88 ng/mL

###

- PROTOCOL NOTES: PK study in mice
- Type: in vivo, BALB/c mice
- CONDITION PARAMETERS: female, BALB/c, mouse, plasma, 10 mg/kg, IV, read-out: MRT(0-t)
QUANTITY KIND: MRT last (h)
Give your result in h as a bare value.

The compound listed as "CN1CCN(Cc2ccc(NC(=O)c3n[nH]cc3Nc3ncnc4[nH]ccc34)cc2)CC1" shows MRT last equal to 1.86

###

- SUBJECT OF TEST: ERK2/MAPK1 (Homo sapiens, UniProt P28482)
- Construct: purchased Reaction Biology Corporation (PA, USA)
- Sequence (P28482 whole entry): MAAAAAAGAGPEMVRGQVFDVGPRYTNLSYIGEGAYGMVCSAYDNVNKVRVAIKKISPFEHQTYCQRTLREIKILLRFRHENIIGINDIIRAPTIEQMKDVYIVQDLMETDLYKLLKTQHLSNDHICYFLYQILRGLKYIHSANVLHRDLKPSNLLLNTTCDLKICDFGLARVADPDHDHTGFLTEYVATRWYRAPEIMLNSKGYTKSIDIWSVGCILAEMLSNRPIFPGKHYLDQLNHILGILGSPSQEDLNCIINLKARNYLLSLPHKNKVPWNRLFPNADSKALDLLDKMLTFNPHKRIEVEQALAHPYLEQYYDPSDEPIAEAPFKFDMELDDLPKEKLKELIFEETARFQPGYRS
- PROTOCOL NOTES: Kinase inhibition assay (Reaction Biology)
- Assay type: biochemical
- CONDITION PARAMETERS: read-out: IC50 ERK2
QUANTITY KIND: IC50

CN1CCN(Cc2ccc(NC(=O)c3n[nH]cc3Nc3ncnc4[nH]ccc34)cc2)CC1 [LT-171-861] has a reported IC50 of > 200 nM

###

- SUBJECT OF TEST: JAK1 (Homo sapiens)
- Sequence (P23458 whole entry): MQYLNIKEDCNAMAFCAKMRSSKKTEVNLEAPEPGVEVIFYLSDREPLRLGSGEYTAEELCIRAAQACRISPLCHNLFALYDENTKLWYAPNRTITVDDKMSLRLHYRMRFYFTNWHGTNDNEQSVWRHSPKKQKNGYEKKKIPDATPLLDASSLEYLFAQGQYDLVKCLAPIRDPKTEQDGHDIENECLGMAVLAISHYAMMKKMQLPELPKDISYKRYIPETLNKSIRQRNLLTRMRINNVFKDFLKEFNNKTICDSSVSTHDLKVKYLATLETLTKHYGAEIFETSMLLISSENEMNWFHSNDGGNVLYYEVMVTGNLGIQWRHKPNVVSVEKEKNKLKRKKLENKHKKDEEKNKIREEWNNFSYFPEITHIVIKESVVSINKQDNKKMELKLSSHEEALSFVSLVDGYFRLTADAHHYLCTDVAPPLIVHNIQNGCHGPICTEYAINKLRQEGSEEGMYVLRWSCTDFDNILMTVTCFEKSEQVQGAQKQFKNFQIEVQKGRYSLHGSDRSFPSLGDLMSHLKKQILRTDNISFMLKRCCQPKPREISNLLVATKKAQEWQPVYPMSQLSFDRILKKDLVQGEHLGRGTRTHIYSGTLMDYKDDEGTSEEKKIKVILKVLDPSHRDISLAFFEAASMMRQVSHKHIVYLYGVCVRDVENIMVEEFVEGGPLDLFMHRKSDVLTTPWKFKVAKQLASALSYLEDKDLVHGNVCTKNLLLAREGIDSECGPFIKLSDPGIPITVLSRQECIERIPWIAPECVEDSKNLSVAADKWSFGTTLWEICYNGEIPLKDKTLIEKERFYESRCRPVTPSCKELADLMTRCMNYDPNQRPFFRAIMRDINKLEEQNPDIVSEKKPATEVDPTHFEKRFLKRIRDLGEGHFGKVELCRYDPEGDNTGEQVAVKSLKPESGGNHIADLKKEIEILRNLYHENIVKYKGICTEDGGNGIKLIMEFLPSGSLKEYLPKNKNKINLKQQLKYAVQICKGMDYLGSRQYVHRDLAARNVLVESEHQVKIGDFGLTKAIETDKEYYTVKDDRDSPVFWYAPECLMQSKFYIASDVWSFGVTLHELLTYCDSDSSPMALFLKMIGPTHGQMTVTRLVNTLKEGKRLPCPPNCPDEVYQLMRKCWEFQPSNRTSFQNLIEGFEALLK
QUANTITY KIND: pIC50
// returns pIC50 (minus log10 of molar concentration), number only

Field pIC50 (entry "CN1CCN(Cc2ccc(NC(=O)c3n[nH]cc3Nc3ncnc4[nH]ccc34)cc2)CC1" ) reads 7.26

###

- SUBJECT OF TEST: FLT4/VEGFR3 (Homo sapiens, UniProt P35916)
- Sequence (P35916 25-1363): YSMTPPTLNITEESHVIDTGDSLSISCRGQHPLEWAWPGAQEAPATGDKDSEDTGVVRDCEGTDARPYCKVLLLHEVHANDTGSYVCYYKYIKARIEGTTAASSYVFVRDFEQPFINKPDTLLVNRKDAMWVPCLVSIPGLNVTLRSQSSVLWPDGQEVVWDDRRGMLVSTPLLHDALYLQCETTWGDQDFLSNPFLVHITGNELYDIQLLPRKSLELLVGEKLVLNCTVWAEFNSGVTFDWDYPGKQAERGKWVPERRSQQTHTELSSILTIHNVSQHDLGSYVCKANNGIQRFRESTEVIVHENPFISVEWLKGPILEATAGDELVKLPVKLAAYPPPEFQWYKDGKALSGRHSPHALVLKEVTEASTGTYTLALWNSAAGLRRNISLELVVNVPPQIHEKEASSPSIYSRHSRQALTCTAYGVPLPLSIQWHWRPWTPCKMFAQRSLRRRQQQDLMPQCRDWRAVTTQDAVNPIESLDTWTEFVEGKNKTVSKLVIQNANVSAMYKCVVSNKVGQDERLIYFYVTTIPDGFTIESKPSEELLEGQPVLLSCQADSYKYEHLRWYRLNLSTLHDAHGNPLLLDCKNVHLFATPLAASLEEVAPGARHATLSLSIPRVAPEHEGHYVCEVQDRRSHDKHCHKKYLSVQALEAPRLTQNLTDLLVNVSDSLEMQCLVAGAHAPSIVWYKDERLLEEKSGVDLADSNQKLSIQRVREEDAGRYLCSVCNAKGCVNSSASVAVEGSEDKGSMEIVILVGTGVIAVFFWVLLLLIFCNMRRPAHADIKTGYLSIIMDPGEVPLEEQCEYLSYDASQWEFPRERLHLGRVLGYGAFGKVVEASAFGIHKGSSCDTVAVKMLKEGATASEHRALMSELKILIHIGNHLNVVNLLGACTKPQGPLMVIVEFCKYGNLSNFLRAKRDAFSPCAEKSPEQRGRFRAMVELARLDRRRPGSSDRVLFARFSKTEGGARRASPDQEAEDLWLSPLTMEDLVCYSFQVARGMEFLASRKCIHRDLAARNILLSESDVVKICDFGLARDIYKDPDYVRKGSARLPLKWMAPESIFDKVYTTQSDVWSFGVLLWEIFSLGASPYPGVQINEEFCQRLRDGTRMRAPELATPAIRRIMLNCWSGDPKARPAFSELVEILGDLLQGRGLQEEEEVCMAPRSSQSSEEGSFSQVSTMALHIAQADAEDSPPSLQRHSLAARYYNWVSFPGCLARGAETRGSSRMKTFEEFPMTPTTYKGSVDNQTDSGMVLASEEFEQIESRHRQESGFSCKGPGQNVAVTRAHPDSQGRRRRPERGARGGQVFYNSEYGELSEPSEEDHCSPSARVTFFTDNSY
- PROTOCOL NOTES: Kinase inhibition assay (Reaction Biology)
QUANTITY KIND: IC50

IC50 for "CN1CCN(Cc2ccc(NC(=O)c3n[nH]cc3Nc3ncnc4[nH]ccc34)cc2)CC1" is 1.24 nM

###

- SUBJECT OF TEST: FLT3 (Homo sapiens, UniProt P36888)
- PROTOCOL NOTES: Cellular thermal shift assay (CETSA / ITDRF CETSA) in MV4-11 cells
- Type: binding
- CONDITION PARAMETERS: 1 h, 53 °C, read-out: fitted Kd value (ITDRF CETSA)
QUANTITY KIND: pKd
Kindly note that pKd refers to -log10 of the concentration in mol/L and answer with the value alone.

// molecule CN1CCN(Cc2ccc(NC(=O)c3n[nH]cc3Nc3ncnc4[nH]ccc34)cc2)CC1 [LT-171-861] , assay FLT3 (Homo sapiens, UniProt P36888), pKd value: 7.11

###

- SUBJECT OF TEST: c-Kit (Homo sapiens, UniProt P10721)
- Construct: purchased Reaction Biology Corporation (PA, USA)
- Sequence (P10721 26-976): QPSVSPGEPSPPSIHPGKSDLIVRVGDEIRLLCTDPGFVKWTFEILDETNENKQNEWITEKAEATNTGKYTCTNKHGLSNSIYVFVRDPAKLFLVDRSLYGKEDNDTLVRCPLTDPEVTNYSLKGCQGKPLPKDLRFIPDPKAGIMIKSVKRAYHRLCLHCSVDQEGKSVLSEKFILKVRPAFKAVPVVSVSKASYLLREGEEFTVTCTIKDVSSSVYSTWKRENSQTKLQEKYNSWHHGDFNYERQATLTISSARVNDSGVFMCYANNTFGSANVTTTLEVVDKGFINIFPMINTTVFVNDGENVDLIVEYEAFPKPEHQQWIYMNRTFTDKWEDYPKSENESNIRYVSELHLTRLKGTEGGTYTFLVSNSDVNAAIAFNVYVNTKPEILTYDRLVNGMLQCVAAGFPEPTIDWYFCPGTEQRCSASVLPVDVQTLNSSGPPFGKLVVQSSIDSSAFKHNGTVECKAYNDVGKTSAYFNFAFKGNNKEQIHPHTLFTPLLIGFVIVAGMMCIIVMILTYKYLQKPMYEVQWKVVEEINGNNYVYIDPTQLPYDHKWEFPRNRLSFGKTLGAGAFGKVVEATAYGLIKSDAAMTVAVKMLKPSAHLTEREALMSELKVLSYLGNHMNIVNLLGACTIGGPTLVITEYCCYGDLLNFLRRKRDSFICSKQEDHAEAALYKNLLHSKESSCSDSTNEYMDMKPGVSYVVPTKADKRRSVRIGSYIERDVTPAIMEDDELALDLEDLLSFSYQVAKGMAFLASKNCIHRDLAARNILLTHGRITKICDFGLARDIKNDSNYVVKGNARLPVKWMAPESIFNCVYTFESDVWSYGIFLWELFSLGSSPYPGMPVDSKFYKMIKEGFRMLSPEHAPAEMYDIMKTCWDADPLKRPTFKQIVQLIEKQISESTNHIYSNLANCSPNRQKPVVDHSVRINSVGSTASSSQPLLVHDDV
- PROTOCOL NOTES: Kinase inhibition assay (Reaction Biology)
- Type: biochemical
- CONDITION PARAMETERS: 10 μM ATP, 10-dose IC50 mode
QUANTITY KIND: pIC50
For clarity, pIC50 is expressed as the negative log10 of concentration in mol/L.

Lab book: pIC50 of "CN1CCN(Cc2ccc(NC(=O)c3n[nH]cc3Nc3ncnc4[nH]ccc34)cc2)CC1" noted as 5.74

###

- SUBJECT OF TEST: FLT3 (ITD) (Homo sapiens, UniProt P36888, ITD)
- PROTOCOL NOTES: biochemical
- CONDITION PARAMETERS: 10 μM ATP, 10-dose IC50 mode
QUANTITY KIND: IC50 (nM)
Your answer is read as nM, so omit the unit and give the number.

Item CN1CCN(Cc2ccc(NC(=O)c3n[nH]cc3Nc3ncnc4[nH]ccc34)cc2)CC1 [LT-171-861] ; assay system FLT3 (ITD) (Homo sapiens, UniProt P36888, ITD); IC50 reported as 0.718

###

- PROTOCOL NOTES: PK study in mice
- Format: in vivo, BALB/c mice
- CONDITION PARAMETERS: female, BALB/c, mouse, plasma, 10 mg/kg, IV
QUANTITY KIND: AUC(0-t) (µg·h/mL)
A number alone suffices; assume µg·h/mL.

Given item "CN1CCN(Cc2ccc(NC(=O)c3n[nH]cc3Nc3ncnc4[nH]ccc34)cc2)CC1" , the value recorded as its AUC(0-t) is 3.31

###

- PROTOCOL NOTES: PK study in mice
- Format: in vivo, BALB/c mice
- CONDITION PARAMETERS: female, BALB/c, mouse, plasma, iv, 10 mg/kg, intravenous (tail) injection (IV), read-out: apparent plasma half-life (t1/2z) (converted)
QUANTITY KIND: half-life (h)
Write it as a number; the unit h goes unstated.

Recorded result, CN1CCN(Cc2ccc(NC(=O)c3n[nH]cc3Nc3ncnc4[nH]ccc34)cc2)CC1 [LT-171-861] , half-life: 2.02

###

- SUBJECT OF TEST: FMS (Homo sapiens, UniProt P07333)
- Construct: purchased Reaction Biology Corporation (PA, USA)
- PROTOCOL NOTES: Kinase inhibition assay (Reaction Biology)
- Format: biochemical
- CONDITION PARAMETERS: 10 μM ATP, 10-dose IC50 mode
QUANTITY KIND: IC50 (nM)
Express it in nM; write the number only.

Query "CN1CCN(Cc2ccc(NC(=O)c3n[nH]cc3Nc3ncnc4[nH]ccc34)cc2)CC1" yields IC50 of 247

###

- PROTOCOL NOTES: PK study in mice
- Format: in vivo, BALB/c mice
- CONDITION PARAMETERS: female, BALB/c, mouse, plasma, 10 mg/kg, IV, read-out: MRT(0-∞)
QUANTITY KIND: MRT inf (h)
Your answer is read as h, so omit the unit and give the number.

Item: CN1CCN(Cc2ccc(NC(=O)c3n[nH]cc3Nc3ncnc4[nH]ccc34)cc2)CC1 [LT-171-861] | MRT inf: 2.1

###

- SUBJECT OF TEST: FLT3 (D835Y) (Homo sapiens, UniProt P36888, D835Y)
- Construct: purchased Reaction Biology Corporation (PA, USA)
- PROTOCOL NOTES: Kinase inhibition assay (Reaction Biology)
- Assay type: biochemical
- CONDITION PARAMETERS: 10 μM ATP, 10-dose IC50 mode
QUANTITY KIND: IC50 (nM)
// note: answer is a bare numeric in nM

Entry "CN1CCN(Cc2ccc(NC(=O)c3n[nH]cc3Nc3ncnc4[nH]ccc34)cc2)CC1" ; IC50 = 0.132

###

- SUBJECT OF TEST: FLT1/VEGFR1 (Homo sapiens, UniProt P17948)
- Sequence (P17948 27-1338): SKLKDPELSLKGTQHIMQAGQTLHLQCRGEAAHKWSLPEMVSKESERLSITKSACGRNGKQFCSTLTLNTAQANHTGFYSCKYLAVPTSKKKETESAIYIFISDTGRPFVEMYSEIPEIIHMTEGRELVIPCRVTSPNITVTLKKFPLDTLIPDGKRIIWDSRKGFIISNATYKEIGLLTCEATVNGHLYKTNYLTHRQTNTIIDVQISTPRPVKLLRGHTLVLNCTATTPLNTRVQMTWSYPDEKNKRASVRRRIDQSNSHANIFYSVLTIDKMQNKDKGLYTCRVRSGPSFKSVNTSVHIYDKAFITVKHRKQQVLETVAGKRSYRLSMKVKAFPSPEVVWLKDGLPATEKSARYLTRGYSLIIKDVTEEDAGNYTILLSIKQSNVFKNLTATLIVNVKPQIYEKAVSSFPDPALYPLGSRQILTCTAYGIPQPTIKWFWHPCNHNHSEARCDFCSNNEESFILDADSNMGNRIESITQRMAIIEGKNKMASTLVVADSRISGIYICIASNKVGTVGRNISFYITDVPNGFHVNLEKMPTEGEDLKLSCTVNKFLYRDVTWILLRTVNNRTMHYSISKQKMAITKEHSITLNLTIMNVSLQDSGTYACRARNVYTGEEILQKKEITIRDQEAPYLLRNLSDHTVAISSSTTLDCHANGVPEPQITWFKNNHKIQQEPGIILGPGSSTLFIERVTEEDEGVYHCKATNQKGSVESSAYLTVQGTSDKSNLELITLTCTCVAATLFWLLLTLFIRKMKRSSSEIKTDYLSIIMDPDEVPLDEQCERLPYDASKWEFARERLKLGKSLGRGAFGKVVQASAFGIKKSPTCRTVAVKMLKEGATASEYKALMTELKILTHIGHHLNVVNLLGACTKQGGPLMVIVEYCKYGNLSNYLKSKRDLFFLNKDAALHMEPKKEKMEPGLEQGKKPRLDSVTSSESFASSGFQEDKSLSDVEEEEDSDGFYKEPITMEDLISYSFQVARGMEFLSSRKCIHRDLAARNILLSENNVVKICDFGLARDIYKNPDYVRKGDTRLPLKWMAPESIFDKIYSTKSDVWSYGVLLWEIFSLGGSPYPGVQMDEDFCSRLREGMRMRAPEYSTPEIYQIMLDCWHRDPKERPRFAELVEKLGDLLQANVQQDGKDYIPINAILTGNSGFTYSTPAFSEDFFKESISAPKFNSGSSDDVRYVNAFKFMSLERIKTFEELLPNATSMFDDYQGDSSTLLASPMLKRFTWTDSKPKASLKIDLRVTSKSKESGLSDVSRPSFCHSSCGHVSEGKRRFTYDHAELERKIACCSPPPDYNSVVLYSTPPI
- PROTOCOL NOTES: Kinase inhibition assay (Reaction Biology)
QUANTITY KIND: IC50
Provide the measurement as a number trailed by its unit.

Noted for CN1CCN(Cc2ccc(NC(=O)c3n[nH]cc3Nc3ncnc4[nH]ccc34)cc2)CC1 [LT-171-861] : its IC50 reads 5.6 nM

###

QUANTITY KIND: pIC50
In simple prose, pIC50 is minus the logarithm base ten of a concentration in moles per litre.

The molecule "CN1CCN(Cc2ccc(NC(=O)c3n[nH]cc3Nc3ncnc4[nH]ccc34)cc2)CC1" , when measured on JAK2 (Homo sapiens, UniProt O60674), yielded pIC50 of 7.47

Data provenance: paper PMC7681098
